Reported pKd values are given for each entry in this list.
# Experimental target: T1, EsCas13d, nuclease-dead (Eubacterium siraeum, UniProt B0MS50, R295A;H300A;R849A;H854A)
# T1 sequence: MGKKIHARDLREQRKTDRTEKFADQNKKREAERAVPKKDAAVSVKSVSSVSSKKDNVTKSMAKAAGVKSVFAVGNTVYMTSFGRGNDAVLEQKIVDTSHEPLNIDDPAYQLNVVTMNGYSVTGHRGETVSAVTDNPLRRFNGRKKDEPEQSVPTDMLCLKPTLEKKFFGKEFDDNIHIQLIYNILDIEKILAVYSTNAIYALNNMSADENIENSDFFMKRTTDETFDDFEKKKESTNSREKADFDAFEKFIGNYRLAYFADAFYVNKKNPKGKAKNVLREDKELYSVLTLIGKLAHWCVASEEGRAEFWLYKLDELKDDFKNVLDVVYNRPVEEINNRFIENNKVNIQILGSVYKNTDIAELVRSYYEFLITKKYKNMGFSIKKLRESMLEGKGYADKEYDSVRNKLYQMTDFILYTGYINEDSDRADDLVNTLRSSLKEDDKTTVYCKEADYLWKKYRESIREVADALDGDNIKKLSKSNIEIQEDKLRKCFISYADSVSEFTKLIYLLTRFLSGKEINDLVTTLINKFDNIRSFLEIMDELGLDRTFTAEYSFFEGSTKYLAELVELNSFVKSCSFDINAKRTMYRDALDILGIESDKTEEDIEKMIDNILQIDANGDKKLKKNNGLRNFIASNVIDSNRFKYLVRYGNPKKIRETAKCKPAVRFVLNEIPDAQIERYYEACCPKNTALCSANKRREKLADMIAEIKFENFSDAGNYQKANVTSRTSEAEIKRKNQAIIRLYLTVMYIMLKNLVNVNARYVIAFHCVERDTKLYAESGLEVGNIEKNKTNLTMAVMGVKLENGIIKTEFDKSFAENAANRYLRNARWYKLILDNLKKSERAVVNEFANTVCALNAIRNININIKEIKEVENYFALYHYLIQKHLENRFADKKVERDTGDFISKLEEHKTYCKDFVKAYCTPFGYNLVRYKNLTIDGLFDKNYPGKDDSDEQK
# Assay method text: crRNA (strand 1, pre-loaded); Mg2+; 40 mM Tris-HCl pH 7.5, 150 mM NaCl, 6 mM MgCl2, 1 mM DTT, 0.1% Tween-20, 0.2 mg/ml BSA; 25 C; 10 min per concentration, then washed
# Cond: tags: His6-TwinStrep-SUMO cleaved; N-terminal SNAP kept (SNAP-Surface 488); label: 3' end held by stalled T7 RNA polymerase
pKd: −log10 of the molar value.
Readout name: pKd

>  <Binder>
target 1 insC 3' of 15,insA 3' of 3 (mixed) RNA 1: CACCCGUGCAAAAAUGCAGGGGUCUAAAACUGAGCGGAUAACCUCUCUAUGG RNA 2: GGGAAUGGAUCCACAUCUACGAAUUCGUACCAUAGAGCAGGUUAUCCGCUACACCGAGAUCGGAAGAGCACACGU

>  <Quantitative result>
7.89

$$$$
>  <Binder>
target 3 del2,del4 (mixed) RNA 1: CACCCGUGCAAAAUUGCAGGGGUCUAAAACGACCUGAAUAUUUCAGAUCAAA RNA 2: GGGAAUGGAUCCACAUCUACGAAUUCGUUUUUGAUCUGAAAUAUUCAGCUGCAGAUCGGAAGAGCACACGU

>  <Quantitative result>
7.43

$$$$
>  <Binder>
target 1 MT 5'PFS GUC 3'PFS UGA (mixed) RNA 1: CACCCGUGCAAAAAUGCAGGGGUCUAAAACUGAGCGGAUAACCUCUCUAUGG RNA 2: GGGAAUGGAUCCACAUCUACGAAUUCGUCCCAUAGAGAGGUUAUCCGCUCAUGAAGAUCGGAAGAGCACACGU

>  <Quantitative result>
7.83

$$$$
>  <Binder>
target 1 C2A,U10G (mixed) RNA 1: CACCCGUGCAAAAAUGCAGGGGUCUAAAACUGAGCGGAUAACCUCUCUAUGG RNA 2: GGGAAUGGAUCCACAUCUACGAAUUCGUACCAUAGAGAGGUGAUCCGCUAACCGAGAUCGGAAGAGCACACGU

>  <Quantitative result>
7.55

$$$$
